System: KM12
procedure-summary: NCI tumour cell line growth inhibition, 48 h
Activity calls are given as the source filed them. No stated cut-off is given here; in the data, active = GI50 up to about 1.1 µM and inactive = higher.
Outcomes: active, inactive

molecule	test-target	group-label
CC(=O)OCCN1c2ccccc2Sc2cnccc21	KM12	active
COC(=O)/C=C\C(C#N)(C#N)/N=C/c1ccc(C)s1	KM12	inactive
CC[C@@]12N=C(N(C)C)C[C@]1(O)ON=C2C	KM12	inactive
C=C1C(=O)OC2C3C(=C)[C@@H](OC(C)=O)CC3C(C)=CC(OC(=O)C(C)(OC(C)=O)C(C)OC(C)=O)[C@@H]12 (stereo partly drawn)	KM12	inactive
COC1/C=C/C(C)C(C(C)C(OC)C(C)CCC(=O)C(C)C(CC(=O)O)OC)OC(=O)/C=C/C=C(\C)CC(OC)C(OC)C2=CC(=O)O[C@@H](C(C)C(OC)CC(OC)/C=C/C(C)C(O)C1)[C@H]2O (stereo partly drawn)	KM12	active
CC(C)(Oc1ccc(/C=C/C(=O)c2ccccc2)cc1)C(=O)Nc1c(Cl)cccc1Cl	KM12	inactive
O=C(Nc1ccc(Cl)cc1Cl)c1cc2nc3ccccc3c(=O)n2c2ccccc12	KM12	inactive
CCCCCCCCCCCCCCCCOCC(Cl)COP(=O)(O)OP(=O)(O)OCC1OC(n2cc(C)c(=O)[nH]c2=O)CC1O (stereo not drawn)	KM12	inactive

---

System: SR
procedure-summary: NCI tumour cell line growth inhibition, 48 h
The source made the active and inactive calls. Cut-off read from the data, not from the text of the source: active = GI50 up to about 1.1 µM and inactive = higher.
Items are presented alongside their recorded GI50.

molecule	GI50
CC(=O)Nc1ncc2c(n1)-c1ccccc1OC2c1ccccc1 (stereo unspecified)	> 100 µM (inactive)
Cn1/c(=N\S(=O)(=O)c2ccccc2)[nH]c2ccccc21	> 100 µM (inactive)
CC1=NN(c2nc(N)nc(CBr)n2)C(C)(C)C1	2.88 µM (inactive)
CC(C)C(NCc1c2ccccc2nc2ccccc12)C(=O)O (stereo unspecified)	20.6 µM (inactive)
O=[N+]([O-])c1ccc2nc(/C(=N\Nc3ccccc3)C(O)c3ccc4c(c3)OCO4)c(O)nc2c1 (stereo unspecified)	91.6 µM (inactive)
O=S(=O)(O)c1ccc(/N=N/c2ccc(/N=N/c3c(O)ccc4cc(S(=O)(=O)O)ccc34)cc2)cc1	> 100 µM (inactive)

---

Tested on: UO-31
procedure-summary: NCI tumour cell line growth inhibition, 48 h
Activity calls are given as the source filed them. Cut-off read from the data, not from the text of the source: active = GI50 up to about 1.1 µM and inactive = higher.
The following molecules are listed with their measured GI50 values.

molecule	GI50
CC(C#N)(NO)C(C)(C#N)NO (stereo not given)	> 100 µM (inactive)
CC(C)(C)c1cc(C(=O)O)c2c(c1)C(=O)OC2(c1ccccc1)c1ccccc1C(=O)O (stereo not given)	> 100 µM (inactive)
C=C[C@@]1(C)CC2CC[C@]3(C)C(C)=CC(=O)CC3[C@]2(C)CC1O (stereo not given in full)	> 100 µM (inactive)
Nc1cccc(/C=C/CN2CCN(CCOC(c3ccccc3)c3ccccc3)CC2)c1	13.6 µM (inactive)
CCC(=C(C#N)C#N)c1cc(OC)c(OC)c(OC)c1	> 100 µM (inactive)
C[C@]12CC[C@H](O)C[C@@H]1CC[C@@H]1[C@@H]2CC[C@]2(C)[C@@H](C3=CC(=O)OC3)CC[C@]12O	2.37 µM (inactive)
Cc1ccc(C(=O)N/N=C(\N=N\c2ccccc2)c2ccc(N(C)C)cc2)cc1	> 100 µM (inactive)
Cc1cn(C2CC(ON3C(=O)c4ccccc4C3=O)C(CO)O2)c(=O)[nH]c1=O (stereo not given)	> 10 µM (inactive)
c1ccc2c(c1)ncn2C1CCCCO1 (stereo not given)	> 100 µM (inactive)
CCOC(=O)NC(Nc1ccc(OC(F)(F)F)cc1)(C(F)(F)F)C(F)(F)F	> 100 µM (inactive)

---

System: CCRF-CEM
procedure-summary: NCI tumour cell line growth inhibition, 48 h
Calls of active or inactive are those of the source. No stated cut-off is given here; in the data, active = GI50 up to about 1.1 µM and inactive = higher. Square brackets hold non-standard residues; d marks the D form. Peptide text beside a SMILES is read from it. * marks the point of attachment. X26 = COC1=CC(=O)N(C(=O)[C@@H](O*)C(C)C)[C@H]1Cc1ccccc1; NMeL = CN[C@@H](CC(C)C)C(=O)O; Hexanoyl = CCCCCC(=O)*
Outcome codes: active, inactive

compound	test-target	group-label
O=C(c1ccccc1)c1ccc(N2C(=O)/C(=C/c3ccccc3S)N=C2c2ccccc2)c(N2C(=O)/C(=C/c3ccccc3S)N=C2c2ccccc2)c1	CCRF-CEM	inactive
O=c1cc(C(F)(F)F)c2cc3c(cc2o1)NCCC3	CCRF-CEM	inactive
CCN(CC)CCCn1cnc2ncccc2c1=O	CCRF-CEM	inactive
COC(C(=O)NCCCCNC(=O)C(OC)c1ccccc1)c1ccccc1 (stereo not drawn)	CCRF-CEM	inactive
COc1ccc(Oc2ccccc2N)cc1	CCRF-CEM	inactive
COc1cc2c(cc1OC)C(C(c1ccccc1)c1ccccc1)N(C)CC2 (stereo not drawn)	CCRF-CEM	inactive
Cc1ccc(OC(=O)N2C/C(=C\c3ccccc3)C(=O)/C(=C/c3ccccc3)C2)cc1	CCRF-CEM	inactive
CC1(C)OC(=O)C(C#N)=C1C[n+]1ccccc1	CCRF-CEM	inactive
Cn1c(O)c(C(=O)Nc2ccc([N+](=O)[O-])cc2)c(=O)n(C)c1=S	CCRF-CEM	inactive
COC(=O)c1cc(C(=CCC[C@H]2CC[C@@]3(C)C(CCC4C3CC[C@@]3(C)C4CC[C@@H]3C(C)CCCC(C)C)C2)c2cc(Cl)c(O)c(C(=O)OC)c2)cc(Cl)c1O (stereo partly drawn)	CCRF-CEM	inactive
C=C(C)C1CC/C(C)=C/CCC2(C)OC2CC/C(CO)=C\C1O (stereo not drawn)	CCRF-CEM	inactive
c1ccc(C2=NOC3(c4ccccc4)SC4CCCCC4CN23)cc1 (stereo not drawn)	CCRF-CEM	inactive
Cc1ccc(S(=O)(=O)NCCN(CCNS(=O)(=O)c2ccc(C)cc2)S(=O)(=O)c2ccc(C)cc2)cc1	CCRF-CEM	inactive
COc1ccc(Cn2c(=O)c(OC)c(C)c3cc4ccccc4cc32)cc1	CCRF-CEM	inactive
C/N=c1\ss/c(=N\C(=S)N(C)C)n1C1CCCCC1	CCRF-CEM	inactive
CCOP(=O)(OCC)C(Nc1cccc(F)c1)c1ccccc1 (stereo not drawn)	CCRF-CEM	inactive
N#Cc1c(N)n(-c2nc3ccccc3s2)c(=O)c2cc([N+](=O)[O-])ccc12	CCRF-CEM	active
CCOc1ccccc1/N=N/c1c(-c2ccccc2)nn(C(=O)CC(=O)Nc2cccc(C)c2)c1-c1ccccc1	CCRF-CEM	inactive
Nc1cccc(/C=C/CN2CCN(CCOC(c3ccccc3)c3ccccc3)CC2)c1	CCRF-CEM	inactive
CCOc1ccccc1/C=C1\NC(=O)N(/C=C2\C(=O)Oc3ccccc3C2=O)C1=O	CCRF-CEM	inactive
CCCCCCCCCCCCCCCCOCC(Cl)COP(=O)(O)OP(=O)(O)OCC1OC(n2cc(C)c(=O)[nH]c2=O)CC1O (stereo not drawn)	CCRF-CEM	inactive
CCCCn1c(C)c2c(c1C)C(=O)N(CCN1CCN(c3ccccc3Cl)CC1)C2=O	CCRF-CEM	inactive
CC1(C)N=C(N)N=C(N)N1c1cccc(OCc2cccc(N)c2)c1	CCRF-CEM	inactive
O=C(c1ccccc1)C1CCCCN1C(=O)c1ccccc1 (stereo not drawn)	CCRF-CEM	inactive
CCCCCC(=O)N[C@H](C(=O)N[C@H](C(=O)N(C)[C@@H](CC(C)C)C(=O)N1CCC[C@H]1C(=O)N1CCC[C@H]1C(=O)O[C@H](C(=O)N1C(=O)C=C(OC)[C@@H]1Cc1ccccc1)C(C)C)C(C)C)C(C)C (Hexanoyl-VV[NMeL]PP-X26)	CCRF-CEM	inactive
[N-]=[N+]=Nc1c(-c2ccccc2)c(=O)n(-c2ccccc2)c2ccccc12	CCRF-CEM	inactive
CC1=NN(c2nc(N)nc(CBr)n2)C(C)(C)C1	CCRF-CEM	active
O=C1OC(c2ccccc2)=N/C1=C\c1c(O)cc(O)cc1O	CCRF-CEM	inactive
COc1cccc(C2CC(C)(N3CCCC3)Oc3cc4c(cc32)OCO4)c1O (stereo not drawn)	CCRF-CEM	inactive
COC(=O)/C=C\C(C#N)(C#N)/N=C/c1ccc(C)s1	CCRF-CEM	active
COc1ccc(/C=C/C(=O)c2c(-c3ccccc3)nn(C)c(=O)c2N2CCOCC2)cc1	CCRF-CEM	inactive
COC1=C2CC(C)CC(OC)[C@@H](OC(=O)CCN)[C@H](C)/C=C(\C)C(OC(N)=O)C(OC)/C=C\C=C(/C)C(=O)NC(=CC1=O)C2=O (stereo partly drawn)	CCRF-CEM	active
C[C@]12CC[C@H](O)C[C@@H]1CC[C@@H]1[C@@H]2CC[C@]2(C)[C@@H](C3=CC(=O)OC3)CC[C@]12O	CCRF-CEM	active
C=CC1(C)CC(=O)C2(O)C(C)(O1)C(OC(C)=O)C(O)C1C(C)(C)CCC(O)C12C (stereo not drawn)	CCRF-CEM	inactive
CN(CC(=O)O)Cc1c[nH]c2ccccc12	CCRF-CEM	inactive
Nc1ccccc1.O=P(O)(OP(=O)(O)c1ccccc1)c1ccccc1	CCRF-CEM	inactive
Cc1cc(C)n(CN(Cn2nc(C)cc2C)c2ccc(N(Cn3nc(C)cc3C)Cn3nc(C)cc3C)cc2)n1	CCRF-CEM	inactive
Nc1cc(N)cc(Cc2ccccc2)c1	CCRF-CEM	inactive
